experiment: yeast display, Sf9 membrane polyspecificity reagent, FACS + sequencing; frameworks hold sequencing errors
measurement type: polyreactivity (PSR sort gate)

Here is how some sequences turned out for polyreactivity (PSR sort gate).
QFQIVESGGGLVQAGGSLRLSCAASGGTFVSYAMGWYRQAPGKERELVAAITYSGGSTYYADSVKGRFTISRDNAKNTVYLQMNSLKPEDTAVYYCAAAKFSYFSYCPRGKVKYEYWGQGTQVTVSS ... low polyreactivity
QVQLVESGGGLVQAGGSLRLSCAASGRIFYGYAMGWYRQAPGKERELVAAISSSGGSTYYADSVKGRFTISRDNAKNTVYLQMNSLKPEDTAVYYCNAQRYRPGYWYDYWGQGTQVTVSS ... high polyreactivity
QVQLVESGGGLVQAGGSLRLSCAASGRIFGDNAMGWYRQAPGKERELVAGIRWRADRTYYADSVKGRFTISRDNAKNTVYLQMNSLKPEDTAVYYCNADVVRYRHWHRGDYWGQGTQVTVSS ... low polyreactivity
QVQLVESGGGLVQAGGSLRLSCAASGRIIGFNAMGWYRQAPGKEMELVASIRTTGGSTRYADSVKGRFTISRDNAKNTVYLQMNSLKREDTAVYYCAARWGKTLWQYNYWGQGTQVTVSS ... high polyreactivity

Consider the record given below.
Input: # return recorded polyreactivity (PSR sort gate) for input `QVQLVESGGGLVQAGGSLRLSCAASGRILNINAMGWYRQAPGKERELVAAITWRGGRTFYADSVKGRFTISRDNAKNTVYLQMNSLKPEDTAVYYCAASSNTWYPTGYYWGQGTQVTVSS`
Output: high polyreactivity

###

experiment: yeast display, Sf9 membrane polyspecificity reagent, FACS + sequencing; frameworks hold sequencing errors
measurement type: polyreactivity (PSR sort gate)

QVQLVESGGGLVQAGGSLRLSCAASGSIFRIYAKGWYRQAPGKERELVAAISSTGSTSYADSVKGRFTISRDNAKNTVYLQMNSLKPEDTAVYYCAAGVYALRRDYWVQGTQVTVSS ... low polyreactivity
QVQLVESGGGLVQAGGSLRLSCAASGSTLGVYVMGWYRQAPGKERELVAAISRNGGSTYYADSVKARFTISRDNAKNTVYLQMNSLKPEDTAVYYCAARTVGRKACFDYWGQGTQVTVSS ... high polyreactivity
QVQLVESGGGLVQAGGSLRLSCAASGIIFHFNDMGWYRQAPRKERELVAAIDSTGSTNYADSVKGRFTISRDNAKNTVYLQMNSLKPEDTAVYYCAVLNHRVDSVLTRYYYWGQGTQVTVSS ... low polyreactivity
QVQLVESGGGLVQAGGSLRLSCAASGYTFRFNAMGWYRQAPGKEREFVAAIDFGGAGTYYADSVKGRFTISRDNATNTVYVQMNSLKPEDTAVYYCNARDGVTTEFDYWGQGTQVTVSS ... low polyreactivity
QVQLVESGGGLVQAGGSLRLSCAASGFTFQWYAMGWYRQAPGKERELVAGITSGASTNYADSVKGRFTISRDNAKNTVYLQMNSLKPEDTAVYYCAARRWREGARYSYWGQGTQVTVSS ... high polyreactivity
QVQLVESGGGLVQAGASLRLSCAASGRTIYANAMGWYIQAPGKERELVAAISRRGGNTYYADSVKGRFTISRDNAKNTVYLQMNRLKPEDTAVYYCYAYGGGDYWGQGTQVTVSS ... high polyreactivity

Input: Name the recorded polyreactivity (PSR sort gate) of the item `QVQLVESGGGLVQAGGSLRLSCAASGRINYFYAIVWSRQAPGKEQELVAAISTSGGSTYYADCVKGRFTISRDNAKNTLYLQMNSLTPEETAVYDCAARFRYYGSEYDYWGQGTQVTVSS` in your answer.
Output: low polyreactivity

Input: # return recorded polyreactivity (PSR sort gate) for input `QVQLVESGGGLDQAGGSLRLSCAASGSIFVNYARGWYRQAPGKERELVAAITRSGGRTYYADSVKGRFTISRDNAKNTVYLQMNSLKPEVTAVYYCAARRGYAGNRDGYWGQGTQVNVSS`
Output: high polyreactivity

Input: Indicate its recorded polyreactivity (PSR sort gate); the sequence in question is `QVQLVESGGGLVQAGCSLRLSCAASGRTGFNAMGWYRQAPGKERELVASIRSGGTSTYYADSVKGRFTISRDNAKNTVYLQMNSLKPEDTAVYYCYDYWGHGTQVTVSS`
Output: low polyreactivity

Input: Give me measured polyreactivity (PSR sort gate), please, for this sequence: `QVQLVESGGGLVQAGGSLRLSCAASGLTLAGYAMGWYRQAPGKERELVAAITASGVRTYYADSVKGRFTISRDNAKNTVYLQMNSLKPEDTAVYYCAAGVQTQRGGYAIYRPGLRYYWGQGTQVTVSS`
Output: high polyreactivity

Input: Provide one value: measured polyreactivity (PSR sort gate) of `QVQLVESGGGLVQAGGSLRLSCAASGIIFWYNAMGWYRQAPGKERELVASISTGGRTYYADSVKGRFTISRDNAKNTVYLQMNSLKPEDTAVYYCAAASRVGFLYCYWGQGTQVTVSS`
Output: low polyreactivity

###

assay: yeast display, Sf9 membrane polyspecificity reagent, FACS + sequencing; frameworks hold sequencing errors
measurement type: polyreactivity (PSR sort gate)

Reference set (5 entries):
QVQLVESGRGLVQAGGSLRLSCAASGRIFFRYAMGWYRQAPGKAMELVAALPKSGGSTYADSVKGRFTISRDNAKTTVSLQMNSLKPEDTAVDDCATETTHYRDSGYIVKYRSEYWGQGTQVTVSS ... low polyreactivity
QVQLVESVGGLVQAGGSLRLSCAASGSIFHYNALGWYRPAPGKERELVAAITSGGSTYADSVKGRFTISRDNAKNTVYLQMNSLKPEDTAVYYCNADSVGPRGDLGYWGQGTQVTVSS ... low polyreactivity
QVQLVESGGGLVQEGGSLRLSCAASGLIFYDNMGWYRQAPGKERELVAAISSSGGSTSYADSVKGRFTISRDNAKNTVYLQMNSLKPEDTAVYYCAADSYPAYLGFVGFDYWGQGTQVTVSS ... low polyreactivity
QVQLVESAGGLVQAGGSLRLSCAASGSTFLIYALGCYRHAPGKERELVAAITVSGGDTYYADSVKGRFTISRDNAKNTVYLQMNSLKPEDTAVYYCAAEGGNDYSSVDAGISYDYWGQGTKVTVSS ... low polyreactivity
QVQLVESGGGLVQAGGSLRLSCAASGSIFAYYAMGWYRQAPGKERELVARITYSTDGTYYADSVKGRFTISRDNAKNTVYLQMNSLKPEDTAVYYCAVDTWWGFKRYKFDYWGQGTQVTVSS ... low polyreactivity

Input: Please report polyreactivity (PSR sort gate) for the following sequence: `QVQLVESGGGLVQAGGSLRLSCAASGSIFHVNAMGWYRQAPGKERELVAGISDGGSTYYADSVKGRFTISRDNAKNTVYLQMNSLKPEDTAVSYCAAESEQWYSYVLSYVWEYDYWGQGTHVTVSS`
Output: low polyreactivity

Input: Name the recorded polyreactivity (PSR sort gate) of the item `QVQLVESGGGLVQAGGSLRLSCAASGRIGNTMGWYRQAPGKERELVATISSSGGSTYYADSVKGRFTISRDNAKNTVYLQMNSLKPEDTAVYYCAVEYYGYSTSGRYLSPYNYWGQGTQVTVSS` in your answer.
Output: low polyreactivity

Input: For the sequence `QVQLVESGGGLVQAGGSLRLSCVASGRIFSVYAMGWYRQAPAKERELVAGITSSGGSTYYADSVKGRFTISRDNAKNTVYLQMNSLKPEDTAVYYCAAVSEYYKGYDYWGQGTQVTVSS` , give its measured polyreactivity (PSR sort gate) value.
Output: high polyreactivity

Input: Report measured polyreactivity (PSR sort gate); entry is `QVQLVESGGGLVQAGGSLRLSCAPSGSTFRPYGMGWYRQAPCKETELVAAINSGDSTYYADSVKGRFTISSDNAKNTVYLQMNSLKPEDTAVYYCAAGYYIRGRYGYWGQATQVTVSS`
Output: high polyreactivity

Input: State its polyreactivity (PSR sort gate) for this sequence: `QVQLVESGGGLVQAGGSLRLSCAASGSTFGYNAMGWYRQAPGKERELVAAISSDGSTNYADSVKGRFTISRDNSKNTVYLQMNSLKPEDTAVYYCAADDNGAWVRMDYWGHGTQVTVSS`
Output: low polyreactivity

Input: Please list polyreactivity (PSR sort gate) recorded for the sequence `QVQLVESGGGLVQAGGSLRLSCAASGRTFVNYVMGWYRQAPGKEREFVAAISRNGGSTYYADSVKGRFTISRDNAKNTVYLQMNSLKPEDTAVYYCAARVYWRYNYWGQGTQVTVSS`
Output: high polyreactivity

###

assay: yeast display, Sf9 membrane polyspecificity reagent, FACS + sequencing; frameworks hold sequencing errors
measurement type: polyreactivity (PSR sort gate)

The examples below pair each entry with its known result.
QDQLVESGGGLVQAGGSLRLSCAASGLTFAPYAMGWYREAPGKERELVAAISNGGSTYYADSVKGRFTISRDNAKNTVYLQMISLKPEDTAVYYCADRAFYFWRGYDYWGQGTQVTVSS ... high polyreactivity
QVQLVESGGGLVQAGGSLRLSCAASGSTFSAYTMGWYRQAPGKERELVAAISYRGGSTYYADSVKGRFTISRDNAKNTVYLQMNSRKPEDTAVYYCAAERKHYGLYDYWGQGTQVTVSS ... low polyreactivity
QVQLVESGGGLVQAGGSLRLSCAASGRTFKYYAMGCYRQARGKERELVAAISGSGGSTYYADSVKGRFTISRDNAKNTVYLQMNSLKPEDTAVYYCATGGGKTRSYNYWGKGTQVTVSS ... high polyreactivity
QVQLVESGGGLVQAGGSLRLSCAASGRIFERNAMGWYRQAPGKERELVAAITYNGGRTYYADSVKGRFTISRDNAKNTVYLQMNSLKPEDTAVYYCNAQSRVTRSSYRGSPRYDYWGQGTQVTVSS ... low polyreactivity
QVQLVESGGVLVQAGGSLRLSCAASGRIFWGYAMGWYRQAPGKERELVARLTSGGDTYYADSVKGRFTISRDNAKNTVDLQMNSLKPEDTAVYYCAKSTAVKPYAYRESGFIYDYRGQGTQVTVSS ... low polyreactivity
QVQLVESGGGLVQAGGSLRLSCASSGRTFTRYAMGWYRQAPGKERELVAAITGGGTTNYADSVKGRFTISRDNAKNTVYLQINSLKPEDTAVYYCAADEQDVFAPGLYFWGQGTQVTVSS ... low polyreactivity
QVQLVESGGGLVQAGGSLRLICAASGYIFDYYAMGWYRQAPGKERELVAAISWSGGSTYYADSVKGRFTISRDNEKNTVSLQMNSLKPEDTAVYYCAAEGTYYGSDYWGQGTQVTVSS ... high polyreactivity
QVQLVESGGGLVQAGGSLRLSCAASGYISRYNTMGWYRHAPGKERELVAAITWSGGSTYADSVKGRFTISRDNAKNTVYLQMNSLKQEDTAVYYCAAGAYIWDNYSYRWYDYWGQGTQVTVSS ... high polyreactivity
QVQLVESGGGLVQAGGSLRLSCAASGSIFRSYAMGWYRQAPGKERELVAAIRSDGRTNYADSVKGRFTISRDNAKNTVYLQMNSLKPEDTAVYYCAAKAYYSYWRSMDYWGQGTQVTVSS ... low polyreactivity
QVQLVESGGGLVQAGGSHRLSCAASGRTFYRYPMGWYRQAPGKERELVATINSGTSTSYADSVKGRFTISRDNAKYTVYLQMNSLKPEDTAVYYCAAKLWTLSFSSRFGGMYYWGQGTQVTVSS ... high polyreactivity

// moving on: another record for polyreactivity (PSR sort gate)
Input: Consider the sequence `QVQLVESGGGLVQAGGSLRLSCAASGSTLYIYAMGWYRQAPGKERELVAAITSSTGSTYADSVKGRFTISRDNAKNTVYLQMNSLKPEDTAVFVCNAGGPLQPYDYWGQGTQVTVSS` . State its measured polyreactivity (PSR sort gate).
Output: low polyreactivity
